- System: RXRα (Homo sapiens)
- Sequence (P19793 1-462): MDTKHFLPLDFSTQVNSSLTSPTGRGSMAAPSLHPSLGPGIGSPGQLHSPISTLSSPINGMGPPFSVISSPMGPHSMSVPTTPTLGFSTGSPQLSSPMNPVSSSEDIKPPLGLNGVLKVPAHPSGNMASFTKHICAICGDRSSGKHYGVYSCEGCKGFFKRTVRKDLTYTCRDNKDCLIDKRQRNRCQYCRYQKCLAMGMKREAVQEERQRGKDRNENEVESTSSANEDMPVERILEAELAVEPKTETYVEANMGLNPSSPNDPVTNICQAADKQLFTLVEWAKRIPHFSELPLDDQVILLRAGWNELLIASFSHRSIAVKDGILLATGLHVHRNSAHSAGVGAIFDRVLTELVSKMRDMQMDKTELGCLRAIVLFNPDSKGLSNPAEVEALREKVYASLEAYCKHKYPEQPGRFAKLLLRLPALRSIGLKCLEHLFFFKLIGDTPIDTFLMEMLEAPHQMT
- Measurement description: Holoreceptor transactivation assay, RXRα
- Protocol conditions: CV1 cells, 36 hours
Experimental endpoint: pEC50
API: returns pEC50 as number; meaning -log10 of concentration in mol/L.

IN: Recorded pEC50 for Cc1cc2c(cc1Sc1ccc(C(=O)O)cn1)C(C)(C)CCC2(C)C , please?
OUT: 7.27

IN: What about Cc1cc2c(cc1Sc1ccc(C(=O)O)cc1)C(C)(C)CCC2(C)C ?
OUT: 6.55

IN: What about Cc1cc2c(cc1S(=O)(=O)c1ccc(C(=O)O)cc1)C(C)(C)CCC2(C)C ?
OUT: 5.55

IN: What about Cc1cc2c(cc1Sc1ncc(C(=O)O)s1)C(C)(C)CCC2(C)C ?
OUT: 5.64

IN: What about CC1(C)CCC(C)(C)c2cc(S(=O)(=O)c3ccc(C(=O)O)cc3)ccc21 ?
OUT: 5.52

---

- System: RXRγ (Mus musculus)
- Construct: expressed in transfected cells; host or cells: CV1
- Sequence (P28705 whole entry): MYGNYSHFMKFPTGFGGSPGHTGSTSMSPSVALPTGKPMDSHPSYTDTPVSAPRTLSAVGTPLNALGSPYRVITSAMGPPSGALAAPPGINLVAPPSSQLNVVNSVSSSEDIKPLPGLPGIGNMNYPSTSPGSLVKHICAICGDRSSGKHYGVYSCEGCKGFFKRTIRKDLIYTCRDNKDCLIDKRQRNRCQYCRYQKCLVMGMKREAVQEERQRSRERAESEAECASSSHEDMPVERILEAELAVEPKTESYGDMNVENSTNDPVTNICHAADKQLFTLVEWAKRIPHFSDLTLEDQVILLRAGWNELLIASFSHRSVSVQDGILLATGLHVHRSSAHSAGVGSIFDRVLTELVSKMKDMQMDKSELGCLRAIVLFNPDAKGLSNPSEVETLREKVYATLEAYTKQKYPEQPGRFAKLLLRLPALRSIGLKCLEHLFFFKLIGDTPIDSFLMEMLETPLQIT
- Measurement description: Holoreceptor transactivation assay, RXRγ
- Assay type: cell-based
- Protocol conditions: CV-1; CV1 cells; relative to all trans retinoic acid; read-out: Transactivation Assay Efficacy (% of RA activity), RXRγ
Could you please report measured Emax for the items listed next?
Answer with a number only, understood to be in %.

IN: Recorded Emax for Cc1cc2c(cc1Sc1ccc(C(=O)O)cn1)C(C)(C)CCC2(C)C , please?
OUT: 85

IN: What about CC1(C)CCC(C)(C)c2cc(S(=O)(=O)c3ccc(C(=O)O)cc3)ccc21 ?
OUT: 26

IN: What about Cc1cc2c(cc1Sc1ccc(C(=O)O)cc1)C(C)(C)CCC2(C)C ?
OUT: 67

IN: What about Cc1cc2c(cc1Sc1ncc(C(=O)O)s1)C(C)(C)CCC2(C)C ?
OUT: 70

---

- System: RARγ (Homo sapiens, UniProt P13631)
- Construct: expressed in transfected cells; host or cells: CV1
- Sequence (P13631 whole entry): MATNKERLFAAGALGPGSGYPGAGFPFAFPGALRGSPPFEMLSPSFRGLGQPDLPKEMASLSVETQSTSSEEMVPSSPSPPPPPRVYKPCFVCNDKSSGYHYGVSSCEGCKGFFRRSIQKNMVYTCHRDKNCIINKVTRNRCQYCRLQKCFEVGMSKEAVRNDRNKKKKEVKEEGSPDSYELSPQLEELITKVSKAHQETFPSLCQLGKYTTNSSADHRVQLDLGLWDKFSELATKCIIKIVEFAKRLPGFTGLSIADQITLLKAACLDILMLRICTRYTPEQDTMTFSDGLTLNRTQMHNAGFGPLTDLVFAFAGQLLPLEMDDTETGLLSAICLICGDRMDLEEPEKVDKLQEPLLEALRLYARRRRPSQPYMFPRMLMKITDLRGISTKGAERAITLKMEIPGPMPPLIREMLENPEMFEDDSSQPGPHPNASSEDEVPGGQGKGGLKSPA
- Measurement description: Holoreceptor transactivation assay, RARγ
- Format: cell-based
- Protocol conditions: CV-1; CV1 cells; relative to all trans retinoic acid; read-out: Transactivation Assay Efficacy (% of RA activity), RARγ
Experimental endpoint: Emax
Value and unit, in that order.

IN: Recorded Emax for Cc1cc2c(cc1Sc1ncc(C(=O)O)s1)C(C)(C)CCC2(C)C , please?
OUT: 7%

IN: What about Cc1cc2c(cc1Sc1ccc(C(=O)O)cn1)C(C)(C)CCC2(C)C ?
OUT: 0%

IN: What about CC1(C)CCC(C)(C)c2cc(S(=O)(=O)c3ccc(C(=O)O)cc3)ccc21 ?
OUT: 0%

IN: What about CC1(C)CCC(C)(C)c2cc(Sc3ccc(C(=O)O)cc3)ccc21 ?
OUT: 37%

IN: What about Cc1cc2c(cc1Sc1ccc(C(=O)O)cc1)C(C)(C)CCC2(C)C ?
OUT: 11%

IN: What about Cc1cc2c(cc1S(=O)(=O)c1ccc(C(=O)O)cc1)C(C)(C)CCC2(C)C ?
OUT: 0%
